test system: MCF7 breast; test: NCI tumour cell line growth inhibition, 48 h
reported metric: TGI

Here's what some known entries look like.
| compound | TGI |
| --- | --- |
| N#Cc1c(-c2ccc([N+](=O)[O-])cc2)cc(-c2ccc(Nc3ccnc4cc(Cl)ccc34)cc2)[nH]c1=O | > 100 µM |
| COc1cc2c(cc1Nc1nc(N3CCc4ccccc43)c3cc[nH]c3n1)N(C(=O)CN(C)C)CC2 | 2.09 µM |
| CC1(C)CC(=O)C2=C(C1)C(c1ccccc1Cl)C1C(=O)CC(C)(C)CC1(O)O2 (centres undefined) | > 100 µM |
| Clc1cccc(-c2sc(-c3cccs3)cc2Cc2cccs2)c1 | > 10 µM |
| CC(C)(CO)CNC(=O)c1ccc2[nH]c(O)c(N=Nc3ccc(S(N)(=O)=O)cc3)c2c1 | > 25 µM |

So what's the measured TGI for this one? `CCN(CC)CCCNc1ccc(C)c2sc3ccccc3c(=O)c12` 1.05 µM

Requested field: TGI. Item: COC1N(C2CC(O)C(CO)O2)C(=O)NC(=O)C1(F)Br (centres undefined) > 100 µM

Please look up its TGI: `O=C(NCCNCCO)c1ccc2c(c1)oc1cc3ccccc3c(=O)n12` > 50 µM

Return reported TGI; argument: `CC1(C)OC[C@@H]([C@@]2(CO[Si](c3ccccc3)(c3ccccc3)C(C)(C)C)CC=CC(=O)O2)O1` > 100 µM

====

system: LXFL 529 NSCLC; experiment: NCI tumour cell line growth inhibition, 48 h
reported metric: TGI

The examples below pair each entry with its known result.
| compound | TGI |
| --- | --- |
| Cc1c2ccnc(C(N)=O)c2c(C)c2c1[nH]c1ccccc12 | 26.9 µM |
| Cc1ccc(S(=O)(=O)OCC/C(=C\[Si](C)(C)C)c2ccccc2)cc1 | > 100 µM |
| COc1cc(Nc2cnc3ccc(C(F)(F)F)cc3n2)cc(OC)c1OC | > 100 µM |
| C[C@]12CCC3[C@@H](CCC45OC4C(=O)CC[C@]35C)C1Cc1cnn(-c3ccc(F)cc3)c1N2 (stereo partly drawn) | > 100 µM |
| Cc1c(N2CCOCC2)nc2ccc(Cl)cc2c1-c1ccccc1 | > 100 µM |
| CC1=N/C(=C\c2ccc(/C=C3/N=C(C)OC3=O)cc2)C(=O)O1 | > 100 µM |
| COc1cc2oc(-c3ccc(O)cc3)cc(=O)c2c(O)c1C1OC(CO)C(O)C(O)C1O (stereo not drawn) | > 100 µM |

Now turn to the next compound.
Which TGI value is on record for `COc1cc(C)c(CC/C(C)=C/Cc2cc(O)ccc2O)c(C)c1C` ? > 25 µM

====

system: NCI-H460 lung
Please reply with one of these outcomes: t (active), f (inactive)

Use the examples below as a reference point.
| compound | discrete label |
| --- | --- |
| N#CC(C(=O)C(=O)Nc1c(Cl)cccc1Cl)c1ccccc1 (stereo not drawn) | f |
| COc1cc2nc(-c3ccc(Cl)cc3)cc(OCCCN3CCOCC3)c2cc1OC | f |
| CCN1C(=S)N(CC)C2C1NC(=S)N2/N=C/C=C/c1ccccc1OC (stereo not drawn) | t |
| O=C(Nc1cccc(-n2cc(-c3ccncc3)c(-c3cc(O)cc(Cl)c3)n2)c1)c1ccc(N2CCOCC2)c(C(F)(F)F)c1 | f |
| CSC1=Nc2c(c(C)c(C)n2COC(CO)CO)C2=NC(=O)CN12 | f |

Recorded test call requested for `CCN=c1sc2c(n1NC(=O)c1cc3ccc1CCc1ccc(cc1)CC3)C(=O)c1ccccc1C2=O` f

What was the test verdict on O=C(/C=C/C12c3ccccc3C(c3ccccc31)C1C(=O)NC(=O)C12)c1ccccn1 (stereo not drawn) ? f

Any idea what this test logged for COC(=O)OC1C(O[C@H]2C[C@H]3[C@@H]4CC=C5C[C@@H](O)CC[C@]5(C)[C@H]4CC[C@]3(C)[C@H]2[C@H](C)C(=O)CCC(C)C)OCC(O)C1OC1OCC(O)C(O)C1OC(=O)c1ccc(OC)cc1 (stereo partly drawn) ? t
